- Tested on: Mycobacterium tuberculosis Erdman (autoluminescent)
- assay_method_text: AUC25, normalised area under dose response up to IC25 (three-drug combination) (fraction (0-1)); higher = more potent at low dose
- experimental_parameters: in vitro model: cholesterol 0.05 mM; time point: terminal (~4-5 doublings, model-specific)
Reported AUC25 values are given for each entry in this list.
endpoint_label: AUC25

[[record]]
molecule = "CC(=O)NC[C@H]1CN(c2ccc(N3CCOCC3)c(F)c2)C(=O)O1 [linezolid] + COc1c(N2C[C@@H]3CCCN[C@@H]3C2)c(F)cc2c(=O)c(C(=O)O)cn(C3CC3)c12 [moxifloxacin] + NC(=O)c1cnccn1 [pyrazinamide]"
endpoint_label = "AUC25"
obs_value = 0.147

[[record]]
molecule = "CC(C)/N=c1\\cc2n(-c3ccc(Cl)cc3)c3ccccc3nc-2cc1Nc1ccc(Cl)cc1 [clofazimine] + NC(=O)c1cnccn1 [pyrazinamide] + CO[C@H]1/C=C/O[C@@]2(C)Oc3c(C)c(O)c4c(O)c(c(/C=N/N5CCN(C6CCCC6)CC5)c(O)c4c3C2=O)NC(=O)/C(C)=C\\C=C\\[C@H](C)[C@H](O)[C@@H](C)[C@@H](O)[C@@H](C)[C@H](OC(C)=O)[C@@H]1C [rifapentine]"
endpoint_label = "AUC25"
obs_value = 0.111


====

- Tested on: Mycobacterium tuberculosis Erdman (autoluminescent)
- assay_method_text: total FIC50 (Loewe) at 50% inhibition, three-drug combination (log2); higher = more antagonistic
- experimental_parameters: in vitro model: cholesterol 0.05 mM; time point: terminal (~4-5 doublings, model-specific)
endpoint_label: total FIC50

[[record]]
molecule = "COc1nc2ccc(Br)cc2cc1[C@@H](c1ccccc1)[C@@](O)(CCN(C)C)c1cccc2ccccc12 [bedaquiline] + COc1c(N2C[C@@H]3CCCN[C@@H]3C2)c(F)cc2c(=O)c(C(=O)O)cn(C3CC3)c12 [moxifloxacin] + CO[C@H]1/C=C/O[C@@]2(C)Oc3c(C)c(O)c4c(O)c(c(/C=N/N5CCN(C)CC5)c(O)c4c3C2=O)NC(=O)/C(C)=C\\C=C\\[C@H](C)[C@H](O)[C@@H](C)[C@@H](O)[C@@H](C)[C@H](OC(C)=O)[C@@H]1C [rifampicin]"
obs_value = 1.13

[[record]]
molecule = "COc1nc2ccc(Br)cc2cc1[C@@H](c1ccccc1)[C@@](O)(CCN(C)C)c1cccc2ccccc12 [bedaquiline] + O=[N+]([O-])c1cn2c(n1)OC[C@@H](OCc1ccc(OC(F)(F)F)cc1)C2 [pretomanid] + NC(=O)c1cnccn1 [pyrazinamide]"
obs_value = 0.657


====

- System: Mycobacterium tuberculosis Erdman (autoluminescent)
- assay_method_text: GRinf, maximum normalised growth rate inhibition (three-drug combination) (unitless (-1 to 1)); higher = less effect (negative = killing)
- experimental_parameters: in vitro model: intracellular J774; time point: constant = terminal
GRinf of -0.3 or higher: criterion met. Under -0.3: criterion not met.

[[record]]
compound = "COc1nc2ccc(Br)cc2cc1[C@@H](c1ccccc1)[C@@](O)(CCN(C)C)c1cccc2ccccc12 [bedaquiline] + NNC(=O)c1ccncc1 [isoniazid] + CC(=O)NC[C@H]1CN(c2ccc(N3CCOCC3)c(F)c2)C(=O)O1 [linezolid]"
cat = "criterion met"

[[record]]
compound = "O=[N+]([O-])c1cn2c(n1)OC[C@@H](OCc1ccc(OC(F)(F)F)cc1)C2 [pretomanid] + NC(=O)c1cnccn1 [pyrazinamide] + CO[C@H]1/C=C/O[C@@]2(C)Oc3c(C)c(O)c4c(O)c(c(/C=N/N5CCN(C6CCCC6)CC5)c(O)c4c3C2=O)NC(=O)/C(C)=C\\C=C\\[C@H](C)[C@H](O)[C@@H](C)[C@@H](O)[C@@H](C)[C@H](OC(C)=O)[C@@H]1C [rifapentine]"
cat = "criterion met"

[[record]]
compound = "NNC(=O)c1ccncc1 [isoniazid] + CC(=O)NC[C@H]1CN(c2ccc(N3CCOCC3)c(F)c2)C(=O)O1 [linezolid] + CO[C@H]1/C=C/O[C@@]2(C)Oc3c(C)c(O)c4c(O)c(c(/C=N/N5CCN(C)CC5)c(O)c4c3C2=O)NC(=O)/C(C)=C\\C=C\\[C@H](C)[C@H](O)[C@@H](C)[C@@H](O)[C@@H](C)[C@H](OC(C)=O)[C@@H]1C [rifampicin]"
cat = "criterion met"

[[record]]
compound = "COc1nc2ccc(Br)cc2cc1[C@@H](c1ccccc1)[C@@](O)(CCN(C)C)c1cccc2ccccc12 [bedaquiline] + CC[C@@H](CO)NCCN[C@@H](CC)CO [ethambutol] + NC(=O)c1cnccn1 [pyrazinamide]"
cat = "criterion not met"

[[record]]
compound = "NNC(=O)c1ccncc1 [isoniazid] + NC(=O)c1cnccn1 [pyrazinamide] + CO[C@H]1/C=C/O[C@@]2(C)Oc3c(C)c(O)c4c(O)c(c(/C=N/N5CCN(C6CCCC6)CC5)c(O)c4c3C2=O)NC(=O)/C(C)=C\\C=C\\[C@H](C)[C@H](O)[C@@H](C)[C@@H](O)[C@@H](C)[C@H](OC(C)=O)[C@@H]1C [rifapentine]"
cat = "criterion not met"

[[record]]
compound = "CC[C@@H](CO)NCCN[C@@H](CC)CO [ethambutol] + CO[C@H]1/C=C/O[C@@]2(C)Oc3c(C)c(O)c4c(O)c(c(/C=N/N5CCN(C6CCCC6)CC5)c(O)c4c3C2=O)NC(=O)/C(C)=C\\C=C\\[C@H](C)[C@H](O)[C@@H](C)[C@@H](O)[C@@H](C)[C@H](OC(C)=O)[C@@H]1C [rifapentine] + CO[C@H]1/C=C/O[C@@]2(C)Oc3c(C)c(O)c4c(O)c(c(/C=N/N5CCN(C)CC5)c(O)c4c3C2=O)NC(=O)/C(C)=C\\C=C\\[C@H](C)[C@H](O)[C@@H](C)[C@@H](O)[C@@H](C)[C@H](OC(C)=O)[C@@H]1C [rifampicin]"
cat = "criterion not met"

